target: T1, c-Met-Fc chimera protein (UniProt P08581 25-932, limits assumed); assay: SPR (Biacore), c-Met-Fc captured by anti-IgG on CM5, single-cycle kinetics
T1 construct: Captured on the SPR chip by an anti-IgG antibody; not shown: Fc part
T1 sequence (P08581 25-932 limits assumed, change not shown): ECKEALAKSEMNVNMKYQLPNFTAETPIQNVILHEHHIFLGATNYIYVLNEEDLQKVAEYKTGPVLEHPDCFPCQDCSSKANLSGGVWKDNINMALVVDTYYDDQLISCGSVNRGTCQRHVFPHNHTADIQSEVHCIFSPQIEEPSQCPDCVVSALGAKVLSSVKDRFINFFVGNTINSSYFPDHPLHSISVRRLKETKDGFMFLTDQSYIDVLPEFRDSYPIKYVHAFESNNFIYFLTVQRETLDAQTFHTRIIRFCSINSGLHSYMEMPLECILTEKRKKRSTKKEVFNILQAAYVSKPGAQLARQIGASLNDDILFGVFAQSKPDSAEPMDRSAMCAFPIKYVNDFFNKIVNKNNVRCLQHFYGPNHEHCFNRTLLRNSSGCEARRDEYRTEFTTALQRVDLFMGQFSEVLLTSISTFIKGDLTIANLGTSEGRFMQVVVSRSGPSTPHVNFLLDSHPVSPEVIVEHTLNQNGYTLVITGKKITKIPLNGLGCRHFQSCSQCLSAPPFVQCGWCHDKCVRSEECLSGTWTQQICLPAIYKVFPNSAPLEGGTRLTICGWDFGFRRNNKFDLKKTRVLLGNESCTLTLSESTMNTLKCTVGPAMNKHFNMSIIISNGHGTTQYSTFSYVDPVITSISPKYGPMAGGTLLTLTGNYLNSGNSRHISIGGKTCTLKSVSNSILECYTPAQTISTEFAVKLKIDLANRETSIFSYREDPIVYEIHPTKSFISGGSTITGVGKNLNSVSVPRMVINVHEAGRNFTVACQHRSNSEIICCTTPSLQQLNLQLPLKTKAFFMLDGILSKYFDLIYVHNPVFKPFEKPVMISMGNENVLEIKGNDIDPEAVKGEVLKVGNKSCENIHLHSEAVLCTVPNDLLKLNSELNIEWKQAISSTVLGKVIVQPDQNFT
Bridges are numbered along the chain shown (N, C = ends). Where no end group is shown, it is not given here. [ ]: non-standard residue; d: D form. NMeR = CN[C@@H](CCCNC(=N)N)C(=O)O; NMeC = CN[C@@H](CS)C(=O)O
value_type: koff (s⁻¹)

Answered cases to consult:
{CH2CO}-YRQFNRRTHEVWNLDCG (thioether N-16; not fully specified, also called D4-3 peptide; D4-3 Monomer) [D4-3]
0.008
{CH2CO}-[dY]WYYAWDQTYKAFPCG (thioether N-15, also called D5-4 peptide; D5-4 Monomer) [D5-4]
0.021

[1] {CH2CO}-YISWNEFNSPNWRFITCG (thioether N-17, also called L5-2 peptide; L5-2 Monomer) [L5-2]
[2] {CH2CO}-YRQFN[NMeR]RTHEVWNLD[NMeC]G (thioether N-16, also called NMe (N6 + N16); N-methylated D4-3) [D4-3NMe]
Could you point out whether the larger koff belongs to 1 or to 2 ? Answer by stating the label of the chosen item.
1
(1: 0.012 s⁻¹, 2: 0.0021 s⁻¹)
